System: MT4
Experiment: Cytotoxicity against MT-4 cells using a cytopathicity assay.
Type: functional, Homo sapiens
Entry class follows CCIC50: low = under 20 µM, mid = from 20 µM up to 50 µM, high = 50 µM and over

Q) State the class of the compound shown: CC(C)(C)OC(=O)N[C@@H](Cc1ccccc1)C[C@H](O)[C@H](Cc1ccccc1)NC(=O)c1ccc(O)c(N)c1
A) high

Q) State the class of the compound shown: CC(C)(C)OC(=O)N[C@@H](Cc1ccccc1)C[C@H](O)[C@H](Cc1ccccc1)NC(=O)c1ccc(O)cc1
A) mid

Q) State the class of the compound shown: O=C(N[C@@H](Cc1ccccc1)C[C@H](O)[C@H](Cc1ccccc1)NC(=O)OCc1ccccc1)OCc1ccccc1
A) high

Q) State the class of the compound shown: COc1cc(C(=O)N[C@@H](Cc2ccccc2)C[C@H](O)[C@H](Cc2ccccc2)NC(=O)OCc2ccccc2)ccc1N
A) low

Q) State the class of the compound shown: CC(C)(C)OC(=O)N[C@@H](Cc1ccccc1)C[C@H](O)[C@H](Cc1ccccc1)NC(=O)c1cc(N)ccc1Cl
A) high

Q) State the class of the compound shown: CC(C)(C)OC(=O)N[C@@H](Cc1ccccc1)C[C@H](O)[C@H](Cc1ccccc1)NC(=O)c1ccc(O)cc1Cl
A) mid

Q) State the class of the compound shown: CC(C)(C)OC(=O)N[C@@H](Cc1ccccc1)C[C@H](O)[C@H](Cc1ccccc1)NC(=O)c1ccccc1O
A) high

Q) State the class of the compound shown: COc1cc(C(=O)N[C@@H](Cc2ccccc2)[C@@H](O)C[C@H](Cc2ccccc2)NC(=O)OC(C)(C)C)ccc1N
A) mid

Q) State the class of the compound shown: O=C(N[C@@H](Cc1ccccc1)[C@@H](O)C[C@H](Cc1ccccc1)NC(=O)c1ccc(O)cc1Cl)OCc1ccccc1
A) low

Q) State the class of the compound shown: CC(C)(C)OC(=O)N[C@@H](Cc1ccccc1)C[C@H](O)[C@H](Cc1ccccc1)NC(=O)c1c(Cl)cccc1Cl
A) low

Q) State the class of the compound shown: CC(C)(C)OC(=O)N[C@@H](Cc1ccccc1)C[C@H](O)[C@H](Cc1ccccc1)NC(=O)c1ccccc1
A) low

Q) State the class of the compound shown: CC(C)(C)OC(=O)N[C@@H](Cc1ccccc1)C[C@H](O)[C@H](Cc1ccccc1)NC(=O)c1cc(O)cc(O)c1
A) high

Q) State the class of the compound shown: O=C(N[C@@H](Cc1ccccc1)[C@@H](O)C[C@H](Cc1ccccc1)NC(=O)c1ccccc1)OCc1ccccc1
A) high

Q) State the class of the compound shown: CC(C)(C)OC(=O)N[C@@H](Cc1ccccc1)C[C@H](O)[C@H](Cc1ccccc1)NC(=O)c1ccc(N)c(O)c1
A) low

Q) State the class of the compound shown: Cc1c(N)cccc1C(=O)N[C@@H](Cc1ccccc1)[C@@H](O)C[C@H](Cc1ccccc1)NC(=O)OC(C)(C)C
A) high

Q) State the class of the compound shown: CC(C)(C)OC(=O)N[C@@H](Cc1ccccc1)C[C@H](O)[C@H](Cc1ccccc1)NC(=O)c1cc(O)ccc1Cl
A) low

Q) State the class of the compound shown: COc1cccc(C(=O)N[C@@H](Cc2ccccc2)[C@@H](O)C[C@H](Cc2ccccc2)NC(=O)OC(C)(C)C)c1
A) low

Q) State the class of the compound shown: Nc1ccc(C(=O)N[C@@H](Cc2ccccc2)C[C@H](O)[C@H](Cc2ccccc2)NC(=O)OCc2ccccc2)c(Cl)c1
A) low

Q) State the class of the compound shown: Cc1c(O)cccc1C(=O)N[C@@H](Cc1ccccc1)[C@@H](O)C[C@H](Cc1ccccc1)NC(=O)OC(C)(C)C
A) mid

Q) State the class of the compound shown: CC(C)(C)OC(=O)N[C@@H](Cc1ccccc1)C[C@H](O)[C@H](Cc1ccccc1)NC(=O)c1cccc(N)c1Cl
A) high

Q) State the class of the compound shown: CC(C)(C)OC(=O)N[C@@H](Cc1ccccc1)C[C@H](O)[C@H](Cc1ccccc1)NC(=O)c1ccc(N)c(N)c1
A) high

Q) State the class of the compound shown: CC(C)(C)OC(=O)N[C@@H](Cc1ccccc1)C[C@H](O)[C@H](Cc1ccccc1)NC(=O)c1cc(N)cc(N)c1
A) high

Q) State the class of the compound shown: CC(C)(C)OC(=O)N[C@@H](Cc1ccccc1)C[C@H](O)[C@H](Cc1ccccc1)NC(=O)c1cccc(O)c1
A) mid

Q) State the class of the compound shown: COc1cc(C(=O)N[C@@H](Cc2ccccc2)[C@@H](O)C[C@H](Cc2ccccc2)NC(=O)OC(C)(C)C)ccc1O
A) mid

Q) State the class of the compound shown: Nc1ccc(C(=O)N[C@@H](Cc2ccccc2)C[C@H](O)[C@H](Cc2ccccc2)NC(=O)OCc2ccccc2)cc1O
A) low

Q) State the class of the compound shown: CC(C)(C)OC(=O)N[C@@H](Cc1ccccc1)C[C@H](O)[C@H](Cc1ccccc1)NC(=O)c1ccc(O)c(O)c1
A) mid

Q) State the class of the compound shown: CC(C)(C)OC(=O)N[C@@H](Cc1ccccc1)C[C@H](O)[C@H](Cc1ccccc1)NC(=O)c1ccc(N)cc1Cl
A) mid

====

RECORDED_ENDPOINT: IC50

Given the compound CC(C)(C)OC(=O)N[C@@H](Cc1ccccc1)C[C@H](O)[C@H](Cc1ccccc1)NC(=O)OC(C)(C)C and test system Human immunodeficiency virus type 1 protease (Human immunodeficiency virus 1), the measured IC50 is 5.3 nM

Given the compound Cc1c(O)cccc1C(=O)N[C@@H](Cc1ccccc1)[C@@H](O)C[C@H](Cc1ccccc1)NC(=O)OC(C)(C)C and test system Human immunodeficiency virus type 1 protease (Human immunodeficiency virus 1), the measured IC50 is 1.6 nM

Given the compound CC(C)(C)OC(=O)N[C@@H](Cc1ccccc1)C[C@H](O)[C@H](Cc1ccccc1)NC(=O)c1cc(O)cc(O)c1 and test system Human immunodeficiency virus type 1 protease (Human immunodeficiency virus 1), the measured IC50 is 51 nM

Given the compound CC(C)(C)OC(=O)N[C@@H](Cc1ccccc1)C[C@H](O)[C@H](Cc1ccccc1)NC(=O)c1ccc(O)cc1 and test system Human immunodeficiency virus type 1 protease (Human immunodeficiency virus 1), the measured IC50 is 3.3 nM

Given the compound CC(C)(C)OC(=O)N[C@@H](Cc1ccccc1)C[C@H](O)[C@H](Cc1ccccc1)NC(=O)c1ccccc1O and test system Human immunodeficiency virus type 1 protease (Human immunodeficiency virus 1), the measured IC50 is 145 nM

Given the compound CC(C)(C)OC(=O)N[C@@H](Cc1ccccc1)C[C@H](O)[C@H](Cc1ccccc1)NC(=O)c1ccc(O)cc1Cl and test system Human immunodeficiency virus type 1 protease (Human immunodeficiency virus 1), the measured IC50 is 1.4 nM

Given the compound O=C(N[C@@H](Cc1ccccc1)[C@@H](O)C[C@H](Cc1ccccc1)NC(=O)c1ccccc1)OCc1ccccc1 and test system Human immunodeficiency virus type 1 protease (Human immunodeficiency virus 1), the measured IC50 is 31 nM

Given the compound CC(C)(C)OC(=O)N[C@@H](Cc1ccccc1)C[C@H](O)[C@H](Cc1ccccc1)NC(=O)c1ccc(N)c(O)c1 and test system Human immunodeficiency virus type 1 protease (Human immunodeficiency virus 1), the measured IC50 is 11 nM

Given the compound O=C(N[C@@H](Cc1ccccc1)[C@@H](O)C[C@H](Cc1ccccc1)NC(=O)c1ccc(O)cc1Cl)OCc1ccccc1 and test system Human immunodeficiency virus type 1 protease (Human immunodeficiency virus 1), the measured IC50 is 1.3 nM

Given the compound CC(C)(C)OC(=O)N[C@@H](Cc1ccccc1)C[C@H](O)[C@H](Cc1ccccc1)NC(=O)c1ccccc1 and test system Human immunodeficiency virus type 1 protease (Human immunodeficiency virus 1), the measured IC50 is 4.5 nM

Given the compound CC(C)(C)OC(=O)N[C@@H](Cc1ccccc1)C[C@H](O)[C@H](Cc1ccccc1)NC(=O)c1cc(N)cc(N)c1 and test system Human immunodeficiency virus type 1 protease (Human immunodeficiency virus 1), the measured IC50 is 250 nM

Given the compound CC(C)(C)OC(=O)N[C@@H](Cc1ccccc1)C[C@H](O)[C@H](Cc1ccccc1)NC(=O)c1cc(N)ccc1Cl and test system Human immunodeficiency virus type 1 protease (Human immunodeficiency virus 1), the measured IC50 is 3.3 nM

Given the compound Nc1ccc(C(=O)N[C@@H](Cc2ccccc2)C[C@H](O)[C@H](Cc2ccccc2)NC(=O)OCc2ccccc2)c(Cl)c1 and test system Human immunodeficiency virus type 1 protease (Human immunodeficiency virus 1), the measured IC50 is 6.1 nM

Given the compound CC(C)(C)OC(=O)N[C@@H](Cc1ccccc1)C[C@H](O)[C@H](Cc1ccccc1)NC(=O)c1cccc(N)c1Cl and test system Human immunodeficiency virus type 1 protease (Human immunodeficiency virus 1), the measured IC50 is 5.3 nM

Given the compound O=C(N[C@@H](Cc1ccccc1)C[C@H](O)[C@H](Cc1ccccc1)NC(=O)OCc1ccccc1)OCc1ccccc1 and test system Human immunodeficiency virus type 1 protease (Human immunodeficiency virus 1), the measured IC50 is 5.6 nM

====

Target: Human immunodeficiency virus type 1 protease (Human immunodeficiency virus 1, UniProt Q72874)
RECORDED_ENDPOINT: pIC50
Bear in mind: pIC50 is minus log10 of a mol/L concentration; give just that figure.

So for CC(C)(C)OC(=O)N[C@@H](Cc1ccccc1)C[C@H](O)[C@H](Cc1ccccc1)NC(=O)c1ccc(N)cc1Cl , the logged pIC50 turned out to be 8.47

So for COc1cc(C(=O)N[C@@H](Cc2ccccc2)[C@@H](O)C[C@H](Cc2ccccc2)NC(=O)OC(C)(C)C)ccc1O , the logged pIC50 turned out to be 8.48

So for COc1cccc(C(=O)N[C@@H](Cc2ccccc2)[C@@H](O)C[C@H](Cc2ccccc2)NC(=O)OC(C)(C)C)c1 , the logged pIC50 turned out to be 7.64

So for CC(C)(C)OC(=O)N[C@@H](Cc1ccccc1)C[C@H](O)[C@H](Cc1ccccc1)NC(=O)c1ccc(O)c(N)c1 , the logged pIC50 turned out to be 8.12

So for CC(C)(C)OC(=O)N[C@@H](Cc1ccccc1)C[C@H](O)[C@H](Cc1ccccc1)NC(=O)c1cc(O)ccc1Cl , the logged pIC50 turned out to be 7.92

So for Nc1ccc(C(=O)N[C@@H](Cc2ccccc2)C[C@H](O)[C@H](Cc2ccccc2)NC(=O)OCc2ccccc2)cc1O , the logged pIC50 turned out to be 7.66

So for COc1cc(C(=O)N[C@@H](Cc2ccccc2)C[C@H](O)[C@H](Cc2ccccc2)NC(=O)OCc2ccccc2)ccc1N , the logged pIC50 turned out to be 7.98
